Molecular target: Streptokinase A (Streptococcus pyogenes serotype M1)
Sequence (P10520 whole entry): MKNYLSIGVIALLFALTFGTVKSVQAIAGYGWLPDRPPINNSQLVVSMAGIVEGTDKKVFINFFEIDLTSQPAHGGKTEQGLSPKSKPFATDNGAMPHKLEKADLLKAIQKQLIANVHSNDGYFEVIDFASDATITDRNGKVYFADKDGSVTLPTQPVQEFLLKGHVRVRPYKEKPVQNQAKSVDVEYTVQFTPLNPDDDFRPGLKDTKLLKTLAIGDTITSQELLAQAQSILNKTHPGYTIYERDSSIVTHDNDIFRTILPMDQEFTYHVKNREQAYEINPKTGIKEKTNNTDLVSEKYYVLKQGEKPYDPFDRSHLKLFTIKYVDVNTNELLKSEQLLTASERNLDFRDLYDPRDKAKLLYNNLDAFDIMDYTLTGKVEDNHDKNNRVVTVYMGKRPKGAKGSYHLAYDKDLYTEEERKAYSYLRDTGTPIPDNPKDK
Experiment: S. pyogenes streptokinase expression inhibitors, potency, dose response, plasminogen activation absorbance, OD405 (AID 1914);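 also: secreted streptokinase activity via plasminogen activation per viability signal from cell pellet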
Format: functional, Streptococcus pyogenes M1 GAS
Activity calls are given as the source filed them.
measured-endpoint: EC50

compound	value-measured
O=C(c1cccs1)N1N=C(c2ccccc2)CC1c1ccccc1 (stereo not drawn)	> 150 µM (not active)
CCn1c(=O)c(C(=O)NNC(=O)Cc2ccccc2)c(O)c2ccccc21	> 150 µM (not active)
O=C(Nc1ccccc1Cc1ccccc1)c1ccccc1NS(=O)(=O)c1ccc(Cl)s1	> 150 µM (not active)
CCn1cc(C(=O)NCc2ccc3c(c2)OCO3)c(=O)c2cc(F)c(N3CCN(C(=O)c4ccco4)CC3)cc21	> 150 µM (not active)
Cn1c(SCC(=O)NC2(C#N)CCCCC2)nnc1-c1cccnc1	> 150 µM (not active)
COc1ccc(-c2cc(C(=O)N/N=C(\C)c3ccco3)c3ccccc3n2)c(OC)c1	> 150 µM (not active)
O=C(NCCS(=O)(=O)N1CCN(c2ccccc2F)CC1)C1CC(=O)N(c2ccc(F)cc2)C1 (stereo not drawn)	> 150 µM (not active)
Cc1cc(C)c2nc(SCCc3ccccc3)nc(C)c2c1	12.5 µM (active)
CCCCOC(=O)c1ccc(NC(=S)N2CCN(c3ncc4c(=O)c(C(=O)O)cn(CC)c4n3)CC2)cc1	> 150 µM (not active)
Cc1nn(-c2ccccc2)c2sc(C(=O)N3CCc4ccccc4C3)cc12	> 150 µM (not active)
Cc1ccc(NC(=O)c2ccc(C#CC3(O)CCCCC3)cc2)cc1C	7.36 µM (inconclusive)
Cc1nnc(-c2cccc(Br)c2)c2cn(-c3ccc(Br)cc3)nc12	19.2 µM (active)
CCCCCCCOC(=O)C[N+](C)(C)CCOC1CC2CCC1(C)C2(C)C (stereo not drawn)	5.77 µM (active)

----------
Molecular target: Low molecular weight phosphotyrosine protein phosphatase (Homo sapiens, UniProt P24666);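 also: Dose-response confirmation assay measuring inhibition of LMPTP enzyme activity by fluorescence intensity read-out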
Sequence (P24666 whole entry): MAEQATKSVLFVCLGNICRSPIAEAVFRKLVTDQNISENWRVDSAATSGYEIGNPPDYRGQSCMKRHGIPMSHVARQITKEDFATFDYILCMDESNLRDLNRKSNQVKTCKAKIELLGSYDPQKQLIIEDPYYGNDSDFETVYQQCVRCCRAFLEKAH
Assay type: functional
Details: read-out: IC50_Mean
Structures can show the parent of a compound that is named as a salt. The source made the active and inactive calls.
Classes used: active, inactive

molecule	target-or-system	assigned-label
Cc1ccc(-n2nc3c(N4CCC(C(=O)NCc5ccc(C)o5)CC4)nnc(C)c3c2C)cc1	Low molecular weight phosphotyrosine protein phosphatase (Homo sapiens, UniProt P24666)	inactive
CCn1cc(C(=O)NCc2ccc3c(c2)OCO3)c(=O)c2cc(F)c(N3CCN(C(=O)c4ccco4)CC3)cc21	Low molecular weight phosphotyrosine protein phosphatase (Homo sapiens, UniProt P24666)	inactive
COCCNc1nc(NCc2ccc(C(C)C)cc2)c2sccc2n1	Low molecular weight phosphotyrosine protein phosphatase (Homo sapiens, UniProt P24666)	inactive
COc1cccc2c1[C@@H]1CN(CCCCn3c(=O)[nH]c4c(sc5ncc(-c6ccccc6)nc54)c3=O)C[C@@H]1CO2 [FIDUXOSIN HYDROCHLORIDE]	Low molecular weight phosphotyrosine protein phosphatase (Homo sapiens, UniProt P24666)	active
CN(C)S(=O)(=O)c1ccc(C(=O)OCC(=O)c2ccc3c(c2)NC(=O)CO3)cc1	Low molecular weight phosphotyrosine protein phosphatase (Homo sapiens, UniProt P24666)	inactive

----------
Biological target: UniProtKB P07333
Sequence (P07333 whole entry): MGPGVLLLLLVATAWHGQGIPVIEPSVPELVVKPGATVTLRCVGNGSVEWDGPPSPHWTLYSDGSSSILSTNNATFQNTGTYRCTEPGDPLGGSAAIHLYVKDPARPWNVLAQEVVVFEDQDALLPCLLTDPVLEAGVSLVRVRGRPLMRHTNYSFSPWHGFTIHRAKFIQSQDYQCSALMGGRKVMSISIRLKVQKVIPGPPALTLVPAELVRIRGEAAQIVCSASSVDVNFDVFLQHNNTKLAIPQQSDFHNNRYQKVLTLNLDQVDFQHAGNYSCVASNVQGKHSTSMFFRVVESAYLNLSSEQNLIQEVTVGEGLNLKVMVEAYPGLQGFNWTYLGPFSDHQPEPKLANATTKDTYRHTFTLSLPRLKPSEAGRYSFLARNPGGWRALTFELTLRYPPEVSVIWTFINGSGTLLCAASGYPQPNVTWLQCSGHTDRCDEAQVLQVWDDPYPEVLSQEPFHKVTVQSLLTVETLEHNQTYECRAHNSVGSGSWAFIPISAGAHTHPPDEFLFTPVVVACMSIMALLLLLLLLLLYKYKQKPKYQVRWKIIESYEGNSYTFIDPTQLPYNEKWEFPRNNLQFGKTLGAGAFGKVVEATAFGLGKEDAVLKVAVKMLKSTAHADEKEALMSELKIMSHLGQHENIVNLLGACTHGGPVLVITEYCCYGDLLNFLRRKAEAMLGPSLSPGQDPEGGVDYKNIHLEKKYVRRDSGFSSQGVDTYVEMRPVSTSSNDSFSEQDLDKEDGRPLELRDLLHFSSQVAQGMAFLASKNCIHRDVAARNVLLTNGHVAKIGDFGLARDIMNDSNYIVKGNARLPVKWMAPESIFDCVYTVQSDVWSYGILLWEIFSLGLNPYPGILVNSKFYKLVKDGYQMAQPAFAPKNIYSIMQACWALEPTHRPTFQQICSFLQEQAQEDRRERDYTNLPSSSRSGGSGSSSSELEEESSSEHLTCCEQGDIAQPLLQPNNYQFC
Format: functional
Active and inactive are the calls of the source.
Classes used: t = active, f = inactive

compound	target-or-system	assigned-label
OCc1cc(-c2ccc3[nH]ncc3c2)on1	UniProtKB P07333	f
CC(C)(O)c1cn(-c2ccc3[nH]ncc3c2)nn1	UniProtKB P07333	t
COC(C(=O)N1Cc2[nH]nc(NC(=O)c3ccc(N4CCN(C)CC4)cc3)c2C1)c1ccccc1 (centres undefined)	UniProtKB P07333	t
NC1CCC(Nc2nccc(-c3c[nH]c4ncccc34)n2)CC1 (centres undefined)	UniProtKB P07333	t

----------
Catalogue of AC50 values
Assay: HepG2 cell cytotoxicity, dose response, cytotoxicity control for Shn3 inhibitor project, CellTiter-Glo, cherry-picked (AID 624134)
Type: functional, cell-based
Activity calls are given as the source filed them.
measured-endpoint: AC50

compound	value-measured
C=CCn1c(-c2ccc(S(=O)(=O)N3CCOCC3)cc2)cs/c1=N\c1ccccc1	40 µM (active)
Cc1ccc(S(=O)(=O)CC2CSc3nc4ccccc4n32)cc1 (centres undefined)	0.592 µM (active)
COc1ccc(Nc2nc(N3CCCC3)c3ccccc3n2)cc1	8.46 µM (active)
O=C(NNc1ccnc2cc(Cl)ccc12)C1CCCCC1	0.409 µM (active)

----------
Biological target: Induced myeloid leukemia cell differentiation protein Mcl-1 (Homo sapiens, UniProt Q07820)
Sequence (Q07820 whole entry): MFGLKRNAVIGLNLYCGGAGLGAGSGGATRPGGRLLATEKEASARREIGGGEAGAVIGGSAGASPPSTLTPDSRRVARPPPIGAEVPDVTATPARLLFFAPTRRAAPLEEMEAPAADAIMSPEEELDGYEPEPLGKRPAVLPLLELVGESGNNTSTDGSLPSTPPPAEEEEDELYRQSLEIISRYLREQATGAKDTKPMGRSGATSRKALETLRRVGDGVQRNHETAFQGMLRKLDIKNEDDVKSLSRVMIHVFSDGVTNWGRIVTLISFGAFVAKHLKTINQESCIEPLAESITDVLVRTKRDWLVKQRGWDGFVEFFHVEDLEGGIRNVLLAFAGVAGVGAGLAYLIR
Assay type: functional
The source made the active and inactive calls.
measured-endpoint: IC50

compound	target-or-system	value-measured
Nc1nc(S)c2ncn(C3OC(CO)C(O)C3O)c2n1 (centres undefined)	Induced myeloid leukemia cell differentiation protein Mcl-1 (Homo sapiens, UniProt Q07820)	7.34 µM (active)
Cc1nc2ccc(NC(=O)c3cc([N+](=O)[O-])cc([N+](=O)[O-])c3Cl)cc2s1	Induced myeloid leukemia cell differentiation protein Mcl-1 (Homo sapiens, UniProt Q07820)	5.15 µM (active)
Cc1ccc([N+](=O)[O-])cc1/N=N/c1c(-c2ccc([N+](=O)[O-])cc2)[nH]n(C(N)=S)c1=O	Induced myeloid leukemia cell differentiation protein Mcl-1 (Homo sapiens, UniProt Q07820)	1.18 µM (active)
Cn1c(N)c(C(=O)COC(=O)c2cc(-c3ccco3)nc3ccccc23)c(=O)n(C)c1=O	Induced myeloid leukemia cell differentiation protein Mcl-1 (Homo sapiens, UniProt Q07820)	2.97 µM (active)

----------
Biological target: Zinc finger protein mex-5 (Caenorhabditis elegans)
Sequence (Q9XUB2 whole entry): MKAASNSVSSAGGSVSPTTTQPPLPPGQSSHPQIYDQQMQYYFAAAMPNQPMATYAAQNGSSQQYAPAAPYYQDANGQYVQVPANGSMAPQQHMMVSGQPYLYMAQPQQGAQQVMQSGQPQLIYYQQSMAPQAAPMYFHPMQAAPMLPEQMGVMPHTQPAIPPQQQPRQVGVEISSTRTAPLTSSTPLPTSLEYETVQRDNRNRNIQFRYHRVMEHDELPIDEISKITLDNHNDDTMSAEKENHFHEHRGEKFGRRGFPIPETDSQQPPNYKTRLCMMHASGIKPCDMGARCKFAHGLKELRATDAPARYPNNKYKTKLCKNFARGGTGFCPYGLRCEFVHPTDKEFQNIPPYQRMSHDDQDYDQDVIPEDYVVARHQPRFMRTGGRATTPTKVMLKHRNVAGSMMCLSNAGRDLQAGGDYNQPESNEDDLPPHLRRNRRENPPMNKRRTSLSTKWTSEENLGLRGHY
Experiment: MEX-5/TCR-2 RNA interaction inhibitors, dose response, biochemical, C. elegans, fluorescence polarization (AID 1960)
Active and inactive are the calls of the source.
measured-endpoint: EC50

compound	target-or-system	value-measured
COC(=O)c1ccc(C2Nc3ccc(/C(C)=N/NC(=O)C(OC)c4ccccc4)cc3C3C=CCC32)cc1 (stereo not drawn)	Zinc finger protein mex-5 (Caenorhabditis elegans)	35.2 µM (active)
CC(=O)c1ccc(C(=O)Nc2sc3c(c2C(N)=O)CCN(Cc2ccccc2)C3)cc1	Zinc finger protein mex-5 (Caenorhabditis elegans)	> 300 µM (inconclusive)
Cc1cc(C)cc(N2C(=O)/C(=C\c3ccc(N4CCN(C)CC4)o3)C(=O)NC2=S)c1	Zinc finger protein mex-5 (Caenorhabditis elegans)	> 300 µM (inconclusive)
CCN(CC)c1ccc(N/C=C2/C(=O)NC(=O)N(c3ccccc3)C2=O)cc1	Zinc finger protein mex-5 (Caenorhabditis elegans)	> 300 µM (not active)
C/C(NCCN1CCCCC1)=C1/C(=O)NC(=O)N(c2ccc(Cl)cc2)C1=O	Zinc finger protein mex-5 (Caenorhabditis elegans)	> 300 µM (not active)
Cc1nnc(N2C(=O)C(O)=C(C(=O)c3ccco3)C2c2ccc(F)cc2)s1 (stereo not drawn)	Zinc finger protein mex-5 (Caenorhabditis elegans)	32.9 µM (active)
COC(=O)CCCC1=CC2=CC(=O)C(C)(OC(=O)c3cnc4ccccc4n3)C(=O)C2=CO1 (stereo not drawn)	Zinc finger protein mex-5 (Caenorhabditis elegans)	12.3 µM (active)
CC(=O)c1ccc2c(c1)C1C=CCC1C(c1cc3c(cc1Br)OCO3)N2 (stereo not drawn)	Zinc finger protein mex-5 (Caenorhabditis elegans)	> 300 µM (not active)
CN(C)Cc1cc(O)c(CN(C)C)cc1O	Zinc finger protein mex-5 (Caenorhabditis elegans)	5.82 µM (active)
CC(=O)N1CCN(c2ccc(N/C=C3\C(=O)NC(=O)N(Cc4ccccc4)C3=O)cc2)CC1	Zinc finger protein mex-5 (Caenorhabditis elegans)	83.1 µM (active)
Cc1c(/C=N/NC(=O)c2cc(O)nc(O)n2)c2ccccn2c1C(=O)c1ccccc1	Zinc finger protein mex-5 (Caenorhabditis elegans)	> 300 µM (inconclusive)
O=[N+]([O-])c1ccc(/N=C/C=C(\O)c2ccc(Br)cc2)cc1	Zinc finger protein mex-5 (Caenorhabditis elegans)	> 300 µM (not active)
CCCn1nc(C(=O)Nc2ccc3nc(C)sc3c2)c2ccccc2c1=O	Zinc finger protein mex-5 (Caenorhabditis elegans)	> 300 µM (not active)
CCOC(=O)N1CCN(/C=C(\C#N)c2nc3ccccc3s2)CC1	Zinc finger protein mex-5 (Caenorhabditis elegans)	> 300 µM (not active)
COc1ccc(N/C=C2/C(=O)N(c3cccc(C)n3)C(=O)c3ccccc32)cc1	Zinc finger protein mex-5 (Caenorhabditis elegans)	> 300 µM (not active)
COCC1CCN(C(=O)CC2C(=O)NCCN2Cc2cccc(Oc3ccccc3)c2)CC1 (stereo not drawn)	Zinc finger protein mex-5 (Caenorhabditis elegans)	> 300 µM (not active)
CCn1c(C)cc(=S)c2ccccc21	Zinc finger protein mex-5 (Caenorhabditis elegans)	> 300 µM (not active)
COc1ccc(-c2cc(C(=O)N/N=C(\C)c3ccco3)c3ccccc3n2)c(OC)c1	Zinc finger protein mex-5 (Caenorhabditis elegans)	> 300 µM (not active)

----------
Catalogue of AC50 values
Target: Histone-lysine N-methyltransferase NSD2 (Homo sapiens)
Sequence (O96028 whole entry): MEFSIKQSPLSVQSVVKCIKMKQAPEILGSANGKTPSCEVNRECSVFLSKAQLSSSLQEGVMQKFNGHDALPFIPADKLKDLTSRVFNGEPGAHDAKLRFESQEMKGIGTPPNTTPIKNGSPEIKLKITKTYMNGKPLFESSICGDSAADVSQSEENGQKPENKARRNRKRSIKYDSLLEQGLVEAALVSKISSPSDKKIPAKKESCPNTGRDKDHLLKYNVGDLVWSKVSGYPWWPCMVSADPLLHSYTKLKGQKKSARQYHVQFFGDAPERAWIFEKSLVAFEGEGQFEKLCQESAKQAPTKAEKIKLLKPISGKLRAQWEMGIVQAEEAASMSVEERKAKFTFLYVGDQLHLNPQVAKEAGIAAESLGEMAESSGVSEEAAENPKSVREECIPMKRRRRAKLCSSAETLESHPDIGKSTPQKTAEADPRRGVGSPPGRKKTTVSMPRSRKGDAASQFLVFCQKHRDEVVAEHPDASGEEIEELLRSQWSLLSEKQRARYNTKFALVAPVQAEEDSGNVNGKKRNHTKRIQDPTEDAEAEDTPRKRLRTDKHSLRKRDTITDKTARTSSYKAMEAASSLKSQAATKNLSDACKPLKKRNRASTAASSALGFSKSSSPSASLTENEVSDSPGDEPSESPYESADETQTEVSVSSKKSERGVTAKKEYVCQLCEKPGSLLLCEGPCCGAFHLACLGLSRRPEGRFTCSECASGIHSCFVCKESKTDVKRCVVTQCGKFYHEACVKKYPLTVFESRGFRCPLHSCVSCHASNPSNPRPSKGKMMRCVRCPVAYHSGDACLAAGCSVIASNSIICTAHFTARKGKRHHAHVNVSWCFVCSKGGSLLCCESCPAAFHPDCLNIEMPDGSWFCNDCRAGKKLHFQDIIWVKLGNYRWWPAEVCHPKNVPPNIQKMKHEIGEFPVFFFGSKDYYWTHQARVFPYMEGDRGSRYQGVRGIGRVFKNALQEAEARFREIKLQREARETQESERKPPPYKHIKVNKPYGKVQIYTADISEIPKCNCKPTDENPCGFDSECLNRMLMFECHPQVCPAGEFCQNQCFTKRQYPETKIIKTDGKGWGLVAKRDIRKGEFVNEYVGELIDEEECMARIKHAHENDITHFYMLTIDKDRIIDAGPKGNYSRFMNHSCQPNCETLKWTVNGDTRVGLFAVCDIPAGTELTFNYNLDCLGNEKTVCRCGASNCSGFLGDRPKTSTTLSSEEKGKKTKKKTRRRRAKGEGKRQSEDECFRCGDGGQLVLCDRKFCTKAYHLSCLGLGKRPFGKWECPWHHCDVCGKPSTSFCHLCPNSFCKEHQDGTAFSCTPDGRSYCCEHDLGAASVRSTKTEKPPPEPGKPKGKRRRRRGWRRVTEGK
Type: biochemical
Calls of active or inactive are those of the source.

compound	AC50
O=C(CCCCCN1C(=O)C2C3C=CC(C3)C2C1=O)Nc1ccc2ncccc2c1 (stereo unspecified)	8.81 µM (active)
CCn1c(C)cc(=S)c2ccccc21	17 µM (active)
CC[n+]1ccc(/C=C/c2ccc(N(C)C)cc2)c2ccccc21	13.4 µM (active)
CCN(CC)CCCNC1=C(Cl)C(=O)c2ccccc2C1=O	4.69 µM (active)
N#Cc1c(Cl)nc2c(c1C#N)CCCC2	11.8 µM (active)
Cc1ccc(-c2cc(C(F)(F)F)n3nc(C(=O)N4CCN5CCCC5C4)cc3n2)cc1 (stereo unspecified)	16 µM (active)
